The reported numbers originate from PubChem BioAssay (EPA / NIEHS).

# EXPERIMENT_NOTES: ATG_Oct_MLP_CIS: Attagene CIS-FACTORIAL HepG2 Assay for human Octamer-Binding Transcription Factor (Oct) (AID 2282993)
# MEASUREMENT_PARAMETERS: HepG2 Attagene cis-factorial Oct reporter, mRNA; actives raise or lower the signal
Active and inactive are the calls of the source. How the source made its calls: active means hit-call score of the fitted dose curve at least 0.9, where 1 is the maximum; inactive means score below 0.9.
Response enum: active, inactive

INSERT INTO assay_data (smiles_repr, group_label) VALUES
  ('Cc1ccc(N=C=O)cc1N=C=O', 'inactive'),
  ('CC(C)(O)c1cnn2c(-c3ccc(F)c(-c4c(F)cccc4C#N)c3)cnc2n1', 'inactive'),
  ('CCCCCOC(=O)c1ccccc1C(=O)OCCCCC', 'active'),
  ('CCN(CC)CCO', 'inactive'),
  ('CN(C)c1ccc(C(=O)c2ccc(N(C)C)cc2)cc1', 'inactive'),
  ('Clc1ccc(C(c2ccc(Cl)cc2)C(Cl)Cl)cc1', 'active');

Then this molecule:
(Q) Record request — test call for N#CC(Br)Br
(A) inactive
